This collection of values is drawn from ChEMBL document CHEMBL1152085.

tested on: Streptococcus pyogenes; experiment: Tested in vitro for minimum inhibitory concentration to produce antibacterial activity against Streptococcus pyogenes PIU 2548; format: functional
Metric: MIC (µg/mL)
State the answer as a number, implicitly in µg/mL.

Specify reported MIC for the compound shown: CC[C@H]1OC(=O)[C@H](C)C[C@H](C)[C@@H](O[C@@H]2O[C@H](C)C[C@H](N(C)C)[C@H]2O)[C@](C)(OC)C[C@@H](C)/C(=N\O)[C@H](C)[C@@H](O)[C@]1(C)O
1.56

Specify reported MIC for the compound shown: CCO/N=C1\[C@H](C)C[C@@](C)(OC)[C@H](O[C@@H]2O[C@H](C)C[C@H](N(C)C)[C@H]2O)[C@@H](C)C[C@@H](C)C(=O)O[C@H](CC)[C@@](C)(O)[C@H](O)[C@H]1C
25

Specify reported MIC for the compound shown: CC[C@H]1OC(=O)[C@H](C)C[C@H](C)[C@@H](O[C@@H]2O[C@H](C)C[C@H](N(C)C)[C@H]2O)[C@](C)(OC)C[C@@H](C)C(=O)[C@H](C)[C@H]2N(CCc3ccc(Oc4ccccc4)cc3)C(=O)O[C@]12C
3.1

Specify reported MIC for the compound shown: CC[C@H]1OC(=O)[C@H](C)C[C@H](C)[C@@H](O[C@@H]2O[C@H](C)C[C@H](N(C)C)[C@H]2O)[C@](C)(OC)C[C@@H](C)C(=O)[C@H](C)[C@H]2N(CCCCc3ccccc3)C(=O)O[C@]12C
0.2

Specify reported MIC for the compound shown: CC[C@H]1OC(=O)[C@H](C)C(=O)[C@H](C)[C@@H](O[C@@H]2O[C@H](C)C[C@H](N(C)C)[C@H]2O)[C@](C)(OC)C[C@@H](C)C(=O)[C@H](C)[C@@H](O)[C@]1(C)O
0.3

Specify reported MIC for the compound shown: CC[C@H]1OC(=O)[C@H](C)C[C@H](C)[C@@H](O[C@@H]2O[C@H](C)C[C@H](N(C)C)[C@H]2O)[C@](C)(OC)C[C@@H](C)C(=O)[C@H](C)[C@H]2OC(=O)O[C@@]21C
0.78

Specify reported MIC for the compound shown: CC[C@H]1OC(=O)[C@H](C)C[C@H](C)[C@@H](O[C@@H]2O[C@H](C)C[C@H](N(C)C)[C@H]2O)[C@](C)(OC)C[C@@H](C)C(=O)[C@H](C)[C@@H](O)[C@]1(C)O
3.1

Specify reported MIC for the compound shown: CC[C@H]1OC(=O)[C@H](C)[C@@H](OC(=S)SC)[C@H](C)[C@@H](O[C@@H]2O[C@H](C)C[C@H](N(C)C)[C@H]2O)[C@](C)(OC)C[C@@H](C)C(=O)[C@H](C)[C@@H](O)[C@]1(C)O
1.56
